meta.source: paper PMC8809517

Please go through the items and note down their pKd.
# Tgt: T1, GFP-9S library array, motif 4 ND N98T;D124M (synthetic construct, N98T;D124M)
# T1 chain: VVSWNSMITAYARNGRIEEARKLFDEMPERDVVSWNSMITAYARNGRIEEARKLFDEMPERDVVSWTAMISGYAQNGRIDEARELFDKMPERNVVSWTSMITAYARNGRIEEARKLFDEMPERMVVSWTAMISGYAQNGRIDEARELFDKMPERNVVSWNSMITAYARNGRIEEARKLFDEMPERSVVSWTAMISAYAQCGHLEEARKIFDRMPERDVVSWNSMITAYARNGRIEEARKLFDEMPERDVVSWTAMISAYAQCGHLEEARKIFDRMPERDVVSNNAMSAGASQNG
# Protocol description: high-throughput RNA pulldown from lysate on Ni-NTA beads; HRP: 50 mM Tris pH 8, 150 mM NaCl, 1 mM beta-mercaptoethanol, 50 ug/ml BSA, 3 ug/ml yeast RNA, 0.5% heparin; ITC and FP: Tris pH 8, 200 mM KCl, 5% glycerol; MST: 50 mM Tris pH 8, 200 mM NaCl, 1 mM DTT, BSA, heparin, 0.05% Tween 20
# Reported conditions: tags: N-terminal His-eGFP; label: 5' IRDye 800CW
When answering, recall that pKd equals minus log10 of the concentration in mol/L, and write that number alone.

input: Given AUUAUACGUGA (ssRNA) [IR-rpoA-U] , respond with its pKd.
output: 6.78

input: Quick one: give measured pKd for AUUAAACGUGA (ssRNA) [IR-rpoA-A]
output: 6.79
